Entries annotated with measured inhibition at 2 µM
- MEASURED ON: Smoothened (SMO) (Mus musculus, UniProt P56726)
- Construct: C3H10T1/2 cells (ATCC #CCL-226) were split and seeded; endogenous in cells; host or cells: C3H10T1/2 (ATCC #CCL-226)
- Sequence (P56726 33-793): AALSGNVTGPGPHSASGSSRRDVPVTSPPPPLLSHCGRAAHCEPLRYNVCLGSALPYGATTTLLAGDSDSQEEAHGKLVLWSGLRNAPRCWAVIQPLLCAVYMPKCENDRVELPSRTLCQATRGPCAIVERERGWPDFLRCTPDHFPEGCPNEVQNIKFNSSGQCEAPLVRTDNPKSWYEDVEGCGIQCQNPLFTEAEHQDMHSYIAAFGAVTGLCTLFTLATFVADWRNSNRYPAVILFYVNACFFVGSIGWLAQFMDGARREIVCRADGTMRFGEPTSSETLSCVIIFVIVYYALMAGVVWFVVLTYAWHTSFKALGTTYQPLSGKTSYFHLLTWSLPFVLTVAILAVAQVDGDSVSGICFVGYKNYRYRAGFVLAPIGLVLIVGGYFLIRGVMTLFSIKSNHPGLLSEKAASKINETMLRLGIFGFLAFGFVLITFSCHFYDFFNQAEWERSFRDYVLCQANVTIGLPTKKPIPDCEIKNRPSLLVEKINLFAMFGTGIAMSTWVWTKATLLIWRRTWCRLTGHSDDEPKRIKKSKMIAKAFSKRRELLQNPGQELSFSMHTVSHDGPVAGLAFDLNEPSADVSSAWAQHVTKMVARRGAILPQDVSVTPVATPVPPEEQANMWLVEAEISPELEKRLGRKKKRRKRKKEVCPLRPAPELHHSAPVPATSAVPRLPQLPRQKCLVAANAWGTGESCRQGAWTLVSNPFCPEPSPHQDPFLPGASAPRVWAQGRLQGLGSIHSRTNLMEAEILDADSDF
- PROCEDURE SUMMARY: Smoothened (SMO)/Sonic Hedgehog (SHh) Transient Transcriptional Activation Assay (Gli-luciferase reporter in C3H10T1/2 cells)
- Assay type: cell-based, murine
- PROTOCOL CONDITIONS: C3H 10T1/2, 2 μM compound; transfected C3H10T1/2 cells, recombinant human SHh 250 ng/mL, 20 hours, luciferase readout; read-out: SMO CELL % INHIBITION @ 2 μM
Where a name gives a salt, the structure may show the parent alone.
ASSAY READOUT: inhibition at 2 µM (%)

* O=C(N[C@@H]1CCN(CC2CC2)[C@@H](c2nc3ccccc3[nH]2)C1)c1ccc2c(c1)OCCO2 [Example 89, hydrochloride] | 88.2
* COc1ccc(C(=O)N[C@@H]2CCN(C)[C@@H](c3nc4ccccc4[nH]3)C2)cc1 [Example 111, trifluoroacetate] | 83.2
* CN1CC[C@@H](NC(=O)Nc2ccc(Cl)c(C(F)(F)F)c2)C[C@@H]1c1nc2ccccc2[nH]1 [Example 26, hydrochloride] | 109
* COc1ccc2nc([C@@H]3C[C@H](NC(=O)Nc4ccc(Cl)c(C(F)(F)F)c4)CN3)[nH]c2c1 | 63

###

Entries annotated with measured inhibition at 2 µM
- MEASURED ON: Smoothened (SMO) (Mus musculus, UniProt P56726)
- Construct: C3H10T1/2 cells (ATCC #CCL-226) were split and seeded; endogenous in cells; host or cells: C3H10T1/2 (ATCC #CCL-226)
- PROCEDURE SUMMARY: Smoothened (SMO)/Sonic Hedgehog (SHh) Transient Transcriptional Activation Assay (Gli-luciferase reporter in C3H10T1/2 cells)
- Assay type: cell-based, murine
- PROTOCOL CONDITIONS: C3H 10T1/2, 2 μM compound; transfected C3H10T1/2 cells, recombinant human SHh 250 ng/mL, 20 hours, luciferase readout; read-out: SMO CELL % INHIBITION @ 2 μM
Counter-ions that a name gives are not always drawn.
ASSAY READOUT: inhibition at 2 µM (%)

• CN1CC[C@@H](NC(=O)Nc2ccc(OC(F)(F)F)cc2)C[C@@H]1c1nc2ccccc2[nH]1 [Example 15, hydrochloride] = 111
• O=C(N[C@H]1C[C@@H](c2nc3ccccc3[nH]2)N(C(=O)OCc2ccccc2)C1)c1ccc2c(c1)OCCO2 = 106
• Cc1ccc(NC(=O)N[C@@H]2CCN(C)[C@@H](c3nc4cc(C#N)ccc4[nH]3)C2)cn1 [Example 127, hydrochloride] = 103
• N#Cc1ccc(NC(=O)N[C@@H]2CCN(Cc3ccccc3)[C@@H](c3nc4ccccc4[nH]3)C2)cc1 = 99.5
• Cc1ccc(NC(=O)N[C@@H]2CCN(C)[C@@H](c3nc4cc(C)c(C)cc4[nH]3)C2)cn1 [Example 131, hydrochloride] = 105
• Cc1cc2nc([C@H]3C[C@H](NC(=O)c4ccc5c(c4)OCCO5)CCN3C)[nH]c2cc1C [Example 49, hydrochloride] = 105
• Cc1ccc2nc([C@H]3C[C@H](NC(=O)c4ccc5c(c4)OCCO5)CCN3C)[nH]c2c1 (stereo in doubt) [Example 6, hydrochloride] = 105
• CN1CC[C@@H](NC(=O)Nc2ccc3c(c2)OCCO3)C[C@@H]1c1nc2ccccc2[nH]1 [Example 67, hydrochloride] = 103
• CN1CC[C@@H](NC(=O)Nc2ccc(C#N)cc2)C[C@@H]1c1nc2ccccc2[nH]1 [Example 31, hydrochloride] = 107
• CN1CC[C@@H](NC(=O)c2ccc3c(c2)OCCO3)C[C@@H]1c1nc2cc(F)c(F)cc2[nH]1 [Example 57, hydrochloride] = 104
• CN1CC[C@@H](NC(=O)Nc2ccc(C#N)nc2)C[C@@H]1c1nc2ccccc2[nH]1 [Example 54, hydrochloride] = 105
• CSc1ccccc1C(=O)N[C@@H]1CCN(C)[C@@H](c2nc3ccccc3[nH]2)C1 [Example 107, trifluoroacetate] = 88.3
• O=C(N[C@@H]1CCN(C2CC2)[C@@H](c2nc3ccccc3[nH]2)C1)c1ccc2c(c1)OCCO2 [Example 125, hydrochloride] = 102
• CN1CC[C@@H](NC(=O)Nc2ccc(C#N)cc2)C[C@@H]1c1nc2cc(F)ccc2[nH]1 [Example 51, hydrochloride] = 105
